system: 931267-113-T-J1-PDC KRAS spheroid with HUVEC/MSC, viability; assay: Anticancer human tumor 931267-113-T-J1-PDC patient-derived colon adenocarcinoma cell line growth inhibition [KRAS2]; conditions: second compound 0.1 µM; first compound 10 µM; active compounds read low
This listing pairs compounds with measured viability, T/C.
Field format: number, assumed %, no unit text.

Below, 2 compounds whose answers are already recorded.
| compound | attributeMeasured | observedResult |
| --- | --- | --- |
| COc1cc(Nc2ncc3c(n2)-c2ccc(Cl)cc2C(c2c(F)cccc2OC)=NC3)ccc1C(=O)O + C=CC(=O)N1CCN(c2nc(=O)n(-c3c(C)ccnc3C(C)C)c3nc(-c4c(O)cccc4F)c(F)cc23)C(C)C1 | viability, T/C | 103 |
| COc1cc(Nc2ncc3c(n2)-c2ccc(Cl)cc2C(c2c(F)cccc2OC)=NC3)ccc1C(=O)O + C=CC(=O)N1CCN(c2nc(OCC3CCCN3C)nc3c2CCN(c2cccc4cccc(C)c24)C3)CC1CC#N | viability, T/C | 58.3 |

Consider the record given below.
Task: Requested field: viability, T/C. Item: CC(C)NCC(C(=O)N1CCN(c2ncnc3c2C(C)CC3O)CC1)c1ccc(Cl)cc1 (stereo not drawn) + COc1cc2nc(C)nc(NC(C)c3cc(N)cc(C(F)(F)F)c3)c2cc1OC1CCOC1
Result: 59.9

---

tested on: 931267-113-T-J1-PDC KRAS spheroid with HUVEC/MSC, viability; experiment: Anticancer human tumor 931267-113-T-J1-PDC cell line growth inhibition [KRAS2]; settings: second compound 0.316 µM; first compound 0.01 µM; active compounds read low;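 further: compound exposure lasted 7 days before the readout; 100% = DMSO vehicle control viability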
viability, T/C less than 40% is rule met; viability, T/C greater than or equal to 40% is rule not met.

| compound | label |
| --- | --- |
| CC(=O)Nc1cccc(-n2c(=O)n(C3CC3)c(=O)c3c(Nc4ccc(I)cc4F)n(C)c(=O)c(C)c32)c1 + C=CC(=O)N1CCN(c2nc(OCC3CCCN3C)nc3c2CCN(c2cccc4cccc(C)c24)C3)CC1CC#N | rule not met |
| CC(=O)Nc1cccc(-n2c(=O)n(C3CC3)c(=O)c3c(Nc4ccc(I)cc4F)n(C)c(=O)c(C)c32)c1 + COc1cc2nc(C)nc(NC(C)c3cc(N)cc(C(F)(F)F)c3)c2cc1OC1CCOC1 | rule not met |
| CC(=O)Nc1cccc(-n2c(=O)n(C3CC3)c(=O)c3c(Nc4ccc(I)cc4F)n(C)c(=O)c(C)c32)c1 + C=CC(=O)N1CCN(c2nc(=O)n(-c3c(C)ccnc3C(C)C)c3nc(-c4c(O)cccc4F)c(F)cc23)C(C)C1 | rule not met |
| CC1COCCN1c1cc(-c2ccnn2C)c2ccnc(-c3ccn[nH]3)c2n1 (stereo not given) + C=CC(=O)N1CCN(c2nc(=O)n(-c3c(C)ccnc3C(C)C)c3nc(-c4c(O)cccc4F)c(F)cc23)C(C)C1 | rule not met |

Now look at this one.
Task: Lab note: viability, T/C threshold 40%. Does this compound come in strictly under it? CC(C)n1nc(-c2ccc3oc(N)nc3c2)c2c(N)ncnc21 + CC1OCC2(CCN(c3cnc(Sc4ccnc(N)c4Cl)c(N)n3)CC2)C1N
Result: rule met

---

Tested on: 931267-113-T-J1-PDC KRAS spheroid with HUVEC/MSC, viability
Experiment: Anticancer human tumor 931267-113-T-J1-PDC cell line growth inhibition [KRAS2];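 further: compound exposure lasted 7 days before the readout; 100% = DMSO vehicle control viability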
Settings: second compound 0.1 µM; first compound 0.01 µM; active compounds read low
Source text: Multicellular complex tumor spheroid response to RAS pathway inhibitors in combination with a targeted agents in patient-derived cell lines with oncogenic KRAS variants from multiple cancer types A high-throughput screen of multi-cell type tumor spheroids was designed to identify active combinations of targeted small molecules and KRAS pathway inhibitors. […] Compounds. […] If the clinical Cmax for an agent had not been determined, the highest concentration tested was 10 microM. […]
viability, T/C less than 80% is Fulfilled; viability, T/C greater than or equal to 80% is Not fulfilled.

| compound | experimentalTarget | label |
| --- | --- | --- |
| CN(C)C/C=C/C(=O)Nc1cc2c(Nc3ccc(F)c(Cl)c3)ncnc2cc1O[C@H]1CCOC1 + CC1OCC2(CCN(c3cnc(Sc4ccnc(N)c4Cl)c(N)n3)CC2)C1N | 931267-113-T-J1-PDC KRAS spheroid with HUVEC/MSC, viability | Fulfilled |

Task: Lab note: viability, T/C threshold 80%. Does this compound come in strictly under it? CC1COCCN1c1cc(-c2ccnn2C)c2ccnc(-c3ccn[nH]3)c2n1 (stereo unspecified) + CC1OCC2(CCN(c3cnc(Sc4ccnc(N)c4Cl)c(N)n3)CC2)C1N
Result: Not fulfilled

Task: Can you check CC(=O)OC12COC1CC(O)C1(C)C(=O)C(O)C3=C(C)C(OC(=O)C(O)C(NC(=O)OC(C)(C)C)c4ccccc4)CC(O)(C(OC(=O)c4ccccc4)C21)C3(C)C (stereo unspecified) + CC1OCC2(CCN(c3cnc(Sc4ccnc(N)c4Cl)c(N)n3)CC2)C1N next?
Result: Not fulfilled
